# MEASURED ON: E3 ubiquitin-protein ligase UHRF1 (Homo sapiens, UniProt Q96T88, F278A)
# Sequence (Q96T88 whole entry F278A): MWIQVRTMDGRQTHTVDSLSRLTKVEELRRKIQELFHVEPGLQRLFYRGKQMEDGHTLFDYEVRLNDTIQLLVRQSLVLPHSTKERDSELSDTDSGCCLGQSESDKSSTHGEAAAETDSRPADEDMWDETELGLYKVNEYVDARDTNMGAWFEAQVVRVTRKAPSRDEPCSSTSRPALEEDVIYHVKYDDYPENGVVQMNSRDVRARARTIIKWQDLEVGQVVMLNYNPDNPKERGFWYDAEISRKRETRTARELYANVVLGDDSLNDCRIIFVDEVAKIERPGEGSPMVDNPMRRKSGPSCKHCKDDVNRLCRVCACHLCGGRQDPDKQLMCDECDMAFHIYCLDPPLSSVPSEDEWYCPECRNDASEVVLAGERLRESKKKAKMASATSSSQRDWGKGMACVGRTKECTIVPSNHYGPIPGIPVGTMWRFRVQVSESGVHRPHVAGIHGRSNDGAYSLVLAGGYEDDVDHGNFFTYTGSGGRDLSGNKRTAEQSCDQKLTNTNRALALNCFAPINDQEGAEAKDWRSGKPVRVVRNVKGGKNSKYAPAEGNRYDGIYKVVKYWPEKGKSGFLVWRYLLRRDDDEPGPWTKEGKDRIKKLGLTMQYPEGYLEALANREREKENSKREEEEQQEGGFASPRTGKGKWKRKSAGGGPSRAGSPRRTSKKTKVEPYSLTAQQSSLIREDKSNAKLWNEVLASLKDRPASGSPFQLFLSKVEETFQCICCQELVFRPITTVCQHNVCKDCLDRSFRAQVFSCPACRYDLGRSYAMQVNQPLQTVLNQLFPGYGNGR
# MEASUREMENT DESCRIPTION: Binding affinity to UHRF1 F278A mutant (unknown origin) assessed as dissociation constant by ITC analysis
READOUT: Kd

Supply reported Kd belonging to this molecule: `Cc1cc(C)c(N)cn1`
> 183 µM

###

# MEASURED ON: E3 ubiquitin-protein ligase UHRF1 (Homo sapiens)
# MEASUREMENT DESCRIPTION: Binding affinity to UHRF1 TTD (unknown origin) assessed as dissociation constant by ITC analysis
READOUT: pKd
pKd field: float, defined as -log10 of concentration (mol/L).

Fill in pKd for `Cc1cc(C)c(N)cn1` tested with E3 ubiquitin-protein ligase UHRF1 (Homo sapiens).
4.71
